TEST_METHOD_NOTES: Metabolic stability in human liver microsomes assessed as compound remaining at 1 uM measured after 1 hr
Assay type: ADME, Microsome
MEASUREMENT_CONTEXT: read-out: Stabilty
MEASURE_NAME: remaining at 1 h, 1 µM (%)

In the examples that follow, each entry is paired with its recorded remaining at 1 h, 1 µM.
| SMILES_CODE | UNIT_LABEL | QUANTITATIVE_RESULT |
| --- | --- | --- |
| CS(=O)(=O)Nc1cccc(-c2csc3cnc(Nc4ccc(N5CCOCC5)cc4)nc23)c1 | % | 79.5 |
| CCN1CCN(c2cccc(Nc3ncc4scc(-c5cccc(NS(C)(=O)=O)c5)c4n3)c2)CC1 | % | 100 |
| CCN1CCN(c2ccc(Nc3ncc4scc(-c5cnc6ccccc6c5)c4n3)cc2)CC1 | % | 44.1 |
| COc1cc(Nc2ncc3scc(-c4cccc(NS(C)(=O)=O)c4)c3n2)cc(OC)c1OC | % | 39.7 |

I = CCN1CCN(c2ccc(Nc3ncc4scc(-c5cccc(NS(C)(=O)=O)c5)c4n3)cc2)CC1
II = CCN1CCN(c2ccc(Nc3ncc4scc(-c5ccccn5)c4n3)cc2)CC1
Lower remaining at 1 h, 1 µM: I or II ? Field: selected label. Fill in the label of the entry you choose.
II
(II: 54.2%, I: 80.2%)

P = CCN1CCN(c2ccc(Nc3ncc4scc(-c5cccc(S(=O)(=O)NC)c5)c4n3)cc2)CC1
Q = CS(=O)(=O)Nc1cccc(-c2csc3cnc(Nc4ccc(N5CCNCC5)cc4)nc23)c1
Sorting ascending by remaining at 1 h, 1 µM, which comes first: P or Q ? Answer by quoting the chosen item's label.
P
(P: 60.2%, Q: 100%)
